assay: Stat Signaling Pathway (AID 446); conditions: ME-180 (cervical carcinoma) SIE beta-lactamase reporter, IL-6 stimulated, 5 h; at 7.69 µM (top of the series) unless noted;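 note: ME-180 cervical cancer cells given 40 pM IL-6 alongside compound; SIE-controlled beta-lactamase reporter measured as 460/530 nm FRET emission ratio; % is set by controls: 0 for no effect and ±100 for the full control effect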
Inconclusive results are not listed. Active and inactive are the calls of the source. Calls come from the whole dose curve; as a rule, active = well fitted curve in either direction with a large enough effect (not every such curve was filed as active); inconclusive = small, poorly fitted or top-dose-only effect, or another doubt; inactive = flat fitted curve, though single readings scatter.
OUTCOME MEASURE: activity, negative = inhibition

COCC(=O)N1CCC[C@@]2(CCN(c3ncccn3)C2)C1 :: -2.01% (inactive)
Clc1ccccc1-c1nccc(NCc2cccs2)n1 :: 1.89% (inactive)
CN(C)Cc1ccccc1-c1nc(N(C)C)c2ccccc2n1 :: 28.7% (inactive)
CC(=O)NCCNc1ncnc2ccc(-c3ccoc3)cc12 :: 3.17% (inactive)
Cc1ccccc1-c1nccc(Nc2ccc(F)cc2)n1 :: -11% (inactive)

Query: // returns reported activity, negative = inhibition for input `Cn1c(=O)c(-c2cccs2)nc2cncnc21`
Response: -17.1% (inactive)

Query: Try this molecule next: `CN1CCN(c2ncc3nc(CCc4ccccc4)c(=O)n(Cc4ccc(F)cc4)c3n2)CC1`
Response: -1.54% (inactive)
